- Target of assay: SARS-CoV-2 3CLpro (Severe acute respiratory syndrome coronavirus 2)
- Assay info: biochemical
- Format: biochemical
- Condition notes: 4 h, read-out: mean
Counter-ions that a name gives are not always drawn.
Quick rule for you: inhibition at 5 µM at 2% or higher means T, lower means F.

[
  {
    "Molecule": "CNCCC=C1c2ccccc2CCc2ccccc21 [Nortriptyline hydrochloride]",
    "Label class": "T"
  },
  {
    "Molecule": "CCCCNc1cc(C(=O)O)cc(S(N)(=O)=O)c1Oc1ccccc1 [Bumetanide]",
    "Label class": "F"
  },
  {
    "Molecule": "O=c1cc(-c2ccc(O)c(O)c2)oc2cc(O)cc(O)c12 [luteolin, reference compound]",
    "Label class": "F"
  },
  {
    "Molecule": "Cc1cc(N)c2ccccc2[n+]1CCCCCCCCCC[n+]1c(C)cc(N)c2ccccc21 [Dequalinium dichloride]",
    "Label class": "T"
  },
  {
    "Molecule": "c1ccc2c(c1)[I+]c1ccccc1-2 [Diphenyleneiodonium chloride]",
    "Label class": "T"
  },
  {
    "Molecule": "CC(=O)c1c(O)c(C)c(O)c(Cc2c(O)c3c(c(C(=O)/C=C/c4ccccc4)c2O)OC(C)(C)C=C3)c1O",
    "Label class": "T"
  },
  {
    "Molecule": "O=c1c(O)c(-c2ccc(O)cc2O)oc2cc(O)cc(O)c12",
    "Label class": "T"
  },
  {
    "Molecule": "O=P1(N(CCCl)CCCl)NCCCO1 (centres unmarked) [Cyclophosphamide monohydrate]",
    "Label class": "F"
  }
]

---

- Target of assay: SARS-CoV-2 3CLpro (Severe acute respiratory syndrome coronavirus 2, UniProt P0DTD1)
- Assay info: biochemical
- Format: biochemical
- Set-up: unit not given here
- Condition notes: sheet LOPAC_screen_w_protease; primary screen with protease, compound at 5 µM; mean of two replicates

[
  {
    "Compound": "COc1c2c(nc3ccccc13)OC(C(C)(O)CO)C2 (stereo not shown)",
    "mean": 2.93
  },
  {
    "Compound": "CN(C)CCC(c1ccc(Br)cc1)c1ccccn1.O=C(O)/C=C\\C(=O)O (racemic) [(±)-Brompheniramine maleate]",
    "mean": 2.6339
  },
  {
    "Compound": "Cl.Cn1ccc2cc(NC(=O)Nc3cccnc3)ccc21 [SB 200646 hydrochloride]",
    "mean": 2.882
  },
  {
    "Compound": "Cl.NCCC[C@](N)(C(=O)O)C(F)F (racemic)",
    "mean": 3.129
  },
  {
    "Compound": "COC(=O)C(C)(N)Cc1ccc(O)cc1.Cl (racemic)",
    "mean": 2.971
  },
  {
    "Compound": "COc1ccccc1N1CCN(CCN(C(=O)c2ccc(I)cc2)c2ccccn2)CC1.Cl [p-MPPI hydrochloride]",
    "mean": 3.1199
  },
  {
    "Compound": "C[C@H]1O[C@@H](n2cc(F)c(=O)[nH]c2=O)[C@H](O)[C@@H]1O",
    "mean": 2.678
  },
  {
    "Compound": "CC12NC(Cc3ccccc31)c1ccccc12.O=C(O)/C=C\\C(=O)O (single isomer, unassigned; (+)) [(+)-MK-801 hydrogen maleate]",
    "mean": 2.6873
  },
  {
    "Compound": "CCCOC(=O)c1c(-c2ccccc2)nc(CC)c(C(=O)SCC)c1CCC",
    "mean": 2.972
  },
  {
    "Compound": "CC(C)C1C2CCC(C2)C1N.Cl (stereo not shown) [AGN 192403 hydrochloride]",
    "mean": 2.735
  },
  {
    "Compound": "Cl.Clc1ccc(Cn2c(CN3CCCC3)nc3ccccc32)cc1 [Clemizole hydrochloride]",
    "mean": 3.083
  },
  {
    "Compound": "CC(C)[C@@]1(NC(=O)[C@@H]2C[C@@H]3c4cccc5[nH]cc(c45)C[C@H]3N(C)C2)O[C@@]2(O)[C@@H]3CCCN3C(=O)[C@H](Cc3ccccc3)N2C1=O.CS(=O)(=O)O [Dihydroergocristine methanesulfonate]",
    "mean": 2.761
  },
  {
    "Compound": "COC(=O)C1=C(C)NC(C)=C([N+](=O)[O-])C1c1ccccc1C(F)(F)F (racemic) [(±)-Bay K 8644]",
    "mean": 3.088
  },
  {
    "Compound": "NC(=O)c1cc[n+](CC2=C(C(=O)[O-])N3C(=O)[C@@H](NC(=O)C(c4ccccc4)S(=O)(=O)[O-])[C@H]3SC2)cc1.O.[Na+] (stereo partly shown) [Cefsulodin sodium salt hydrate]",
    "mean": 2.816
  },
  {
    "Compound": "NC(=O)NO [Hydroxyurea]",
    "mean": 2.8429
  },
  {
    "Compound": "O=C(OCCN1CCCCC1)c1c[nH]c2ccccc12",
    "mean": 2.639
  }
]

---

- Target of assay: SARS-CoV-2 3CLpro (Severe acute respiratory syndrome coronavirus 2)
- Assay info: biochemical
- Assay type: biochemical
- Condition notes: LOPAC1280 primary screen with protease, 5 µM compound, replicate 2
Measured parameter: Replicate_2 (LOPAC_screen_w_protease)

[
  {
    "Compound": "NC/C=C/C(=O)O [(E)-4-amino-2-butenoic acid]",
    "Measured parameter": "Replicate_2 (LOPAC_screen_w_protease)",
    "Result": 1.238
  },
  {
    "Compound": "COc1cc2c(CCNC(C)=O)c[nH]c2cc1Cl",
    "Measured parameter": "Replicate_2 (LOPAC_screen_w_protease)",
    "Result": 2.794
  },
  {
    "Compound": "CC(C)C[C@H]1C(=O)N2CCC[C@H]2[C@]2(O)O[C@](NC(=O)[C@@H]3C=C4c5cccc6[nH]c(Br)c(c56)C[C@H]4N(C)C3)(C(C)C)C(=O)N12.CS(=O)(=O)O [(+)-Bromocriptine methanesulfonate]",
    "Measured parameter": "Replicate_2 (LOPAC_screen_w_protease)",
    "Result": 1.562
  },
  {
    "Compound": "Cl.N=C(N)NC(=N)Nc1cccc(Cl)c1",
    "Measured parameter": "Replicate_2 (LOPAC_screen_w_protease)",
    "Result": 1.173
  },
  {
    "Compound": "OC(CN1CCN(c2cccc(Cl)c2)CC1)C(c1ccccc1)c1ccccc1 (stereo not shown)",
    "Measured parameter": "Replicate_2 (LOPAC_screen_w_protease)",
    "Result": 3.204
  },
  {
    "Compound": "Cc1ccc(OCC(O)C(C)NC(C)C)c2c1CCC2.Cl (stereo not shown) [ICI 118,551 hydrochloride]",
    "Measured parameter": "Replicate_2 (LOPAC_screen_w_protease)",
    "Result": 0.3114
  },
  {
    "Compound": "CCCn1c(C)c(C(=O)c2cccc3ccccc23)c2ccccc21",
    "Measured parameter": "Replicate_2 (LOPAC_screen_w_protease)",
    "Result": 1.024
  },
  {
    "Compound": "CC1=C(C(=O)O)N2C(=O)[C@@H](NC(=O)[C@H](N)c3ccccc3)[C@H]2SC1.O [Cephalexin hydrate]",
    "Measured parameter": "Replicate_2 (LOPAC_screen_w_protease)",
    "Result": 1.074
  },
  {
    "Compound": "CC(C)(C)NCC(O)c1ccc(O)c(CO)c1.CC(C)(C)NCC(O)c1ccc(O)c(CO)c1.O=S(=O)(O)O (stereo not shown) [Albuterol hemisulfate]",
    "Measured parameter": "Replicate_2 (LOPAC_screen_w_protease)",
    "Result": 1.593
  },
  {
    "Compound": "CC1CNCCN1S(=O)(=O)c1cccc2cnccc12.Cl.Cl (stereo not shown) [H-7 dihydrochloride]",
    "Measured parameter": "Replicate_2 (LOPAC_screen_w_protease)",
    "Result": 0.6491
  },
  {
    "Compound": "NC(CO)(CO)CO.O=C(c1ccccc1)c1ccc2n1CCC2C(=O)O (stereo not shown) [Ketorolac tris salt]",
    "Measured parameter": "Replicate_2 (LOPAC_screen_w_protease)",
    "Result": 1.443
  },
  {
    "Compound": "Cl.Clc1ccc(N2CCN(Cc3c[nH]c4ncccc34)CC2)cc1 [L-745,870 hydrochloride]",
    "Measured parameter": "Replicate_2 (LOPAC_screen_w_protease)",
    "Result": 0.6216
  },
  {
    "Compound": "C[C@@H](N)[C@H]1CC[C@H](C(=O)Nc2ccncc2)CC1.Cl.Cl [Y-27632 dihydrochloride]",
    "Measured parameter": "Replicate_2 (LOPAC_screen_w_protease)",
    "Result": 0.5298
  },
  {
    "Compound": "N.N.N.N.N.N.N.N.N.N.N.N.N.N.[Cl-].[Cl-].[Cl-].[Cl-].[Cl-].[Cl-].[O-2].[O-2].[Ru+3].[Ru+3].[Ru+4]",
    "Measured parameter": "Replicate_2 (LOPAC_screen_w_protease)",
    "Result": 1.042
  },
  {
    "Compound": "COc1ccc(CCN(C)CCCC(C#N)(c2cc(OC)c(OC)c(OC)c2)C(C)C)cc1OC.Cl (racemic) [(±)-Methoxyverapamil hydrochloride]",
    "Measured parameter": "Replicate_2 (LOPAC_screen_w_protease)",
    "Result": 1.826
  },
  {
    "Compound": "CCCCCCCCCCCCCCC[C@H](O)[C@H](N)CO (racemic) [DL-erythro-Dihydrosphingosine]",
    "Measured parameter": "Replicate_2 (LOPAC_screen_w_protease)",
    "Result": -1.681
  },
  {
    "Compound": "CP(=O)(O)CCCN.Cl [SKF 97541 hydrochloride]",
    "Measured parameter": "Replicate_2 (LOPAC_screen_w_protease)",
    "Result": 2.1785
  },
  {
    "Compound": "C[C@]12CC[C@@H](O)C[C@@H]1CC[C@@H]1[C@@H]2CC[C@]2(C)[C@@H](O)CC[C@@H]12",
    "Measured parameter": "Replicate_2 (LOPAC_screen_w_protease)",
    "Result": 3.098
  },
  {
    "Compound": "C=CCn1c(=O)c2c(nc(-c3ccc(S(=O)(=O)O)cc3)n2C)n(C)c1=O",
    "Measured parameter": "Replicate_2 (LOPAC_screen_w_protease)",
    "Result": 1.002
  },
  {
    "Compound": "Cl.Cl.NCCC(=O)NCCc1c[nH]cn1 [Carcinine dihydrochloride]",
    "Measured parameter": "Replicate_2 (LOPAC_screen_w_protease)",
    "Result": 2.985
  },
  {
    "Compound": "Br.COc1ccccc1N1CCN(CCCCN2C(=O)c3ccccc3C2=O)CC1 [NAN-190 hydrobromide]",
    "Measured parameter": "Replicate_2 (LOPAC_screen_w_protease)",
    "Result": -0.03323
  },
  {
    "Compound": "CN(Cc1cnc2nc(N)nc(N)c2n1)c1ccc(C(=O)N[C@@H](CCC(=O)O)C(=O)O)cc1 [(-)Amethopterin]",
    "Measured parameter": "Replicate_2 (LOPAC_screen_w_protease)",
    "Result": 1.671
  },
  {
    "Compound": "O=[N+]([O-])c1cccc2c(Br)n[nH]c12",
    "Measured parameter": "Replicate_2 (LOPAC_screen_w_protease)",
    "Result": 1.613
  },
  {
    "Compound": "N[C@@H](CS(=O)O)C(=O)O",
    "Measured parameter": "Replicate_2 (LOPAC_screen_w_protease)",
    "Result": 1.598
  },
  {
    "Compound": "O=C(O)[C@@H]1C[C@H](C(=O)O)N1 [cis-Azetidine-2,4-dicarboxylic acid]",
    "Measured parameter": "Replicate_2 (LOPAC_screen_w_protease)",
    "Result": 1.457
  },
  {
    "Compound": "CCCCCCCCCCCCCCCCCC(=O)OC(CC(=O)O)C[N+](C)(C)C.[Cl-] (racemic) [DL-Stearoylcarnitine chloride]",
    "Measured parameter": "Replicate_2 (LOPAC_screen_w_protease)",
    "Result": 0.2369
  },
  {
    "Compound": "Cl.O=C(Cc1ccc(Cl)c(Cl)c1)N1CCCCC1CN1CCCC1 (stereo not shown) [BRL 52537 hydrochloride]",
    "Measured parameter": "Replicate_2 (LOPAC_screen_w_protease)",
    "Result": 1.152
  },
  {
    "Compound": "N.N.N.Nc1ncnc2c1ncn2C1OC(COP(=O)(O)OP(=O)(O)OP(=O)(O)OP(=O)(O)OC[C@H]2O[C@@H](n3cnc4c(N)ncnc43)C(O)C2O)[C@@H](O)C1O (stereo in doubt)",
    "Measured parameter": "Replicate_2 (LOPAC_screen_w_protease)",
    "Result": 0.4753
  },
  {
    "Compound": "C/C(O)=C(\\C#N)C(=O)Nc1cc(Br)ccc1Br",
    "Measured parameter": "Replicate_2 (LOPAC_screen_w_protease)",
    "Result": 3.017
  },
  {
    "Compound": "N=C(N)NC(CCC(=O)O)C(=O)O (stereo not shown)",
    "Measured parameter": "Replicate_2 (LOPAC_screen_w_protease)",
    "Result": 1.632
  },
  {
    "Compound": "Nc1nc(Cl)nc2c1ncn2[C@@H]1O[C@H](CO)[C@@H](O)[C@H]1O",
    "Measured parameter": "Replicate_2 (LOPAC_screen_w_protease)",
    "Result": 1.608
  }
]
